- Study target: EZH2 (Homo sapiens, UniProt Q15910)
- Sequence (Q15910 whole entry): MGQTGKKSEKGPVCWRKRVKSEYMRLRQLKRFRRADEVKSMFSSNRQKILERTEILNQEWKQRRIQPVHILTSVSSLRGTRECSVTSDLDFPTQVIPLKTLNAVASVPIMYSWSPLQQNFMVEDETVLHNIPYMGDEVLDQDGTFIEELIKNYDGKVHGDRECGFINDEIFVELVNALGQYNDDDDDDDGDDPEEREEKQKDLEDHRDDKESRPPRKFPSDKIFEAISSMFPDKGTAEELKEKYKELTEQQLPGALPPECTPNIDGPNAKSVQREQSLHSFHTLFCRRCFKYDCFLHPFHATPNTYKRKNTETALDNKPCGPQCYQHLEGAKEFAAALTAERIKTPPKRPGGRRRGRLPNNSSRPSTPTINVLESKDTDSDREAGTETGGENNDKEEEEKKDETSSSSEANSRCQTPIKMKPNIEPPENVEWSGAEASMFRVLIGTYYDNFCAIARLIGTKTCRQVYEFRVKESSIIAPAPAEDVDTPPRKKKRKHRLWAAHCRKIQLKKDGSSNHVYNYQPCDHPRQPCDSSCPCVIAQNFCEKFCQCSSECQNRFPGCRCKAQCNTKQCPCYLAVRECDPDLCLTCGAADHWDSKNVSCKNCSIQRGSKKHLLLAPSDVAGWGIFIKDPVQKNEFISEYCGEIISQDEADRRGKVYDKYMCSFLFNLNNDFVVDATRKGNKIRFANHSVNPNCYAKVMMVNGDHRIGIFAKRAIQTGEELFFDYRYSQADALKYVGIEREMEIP
- Sequence (O75530 whole entry partner): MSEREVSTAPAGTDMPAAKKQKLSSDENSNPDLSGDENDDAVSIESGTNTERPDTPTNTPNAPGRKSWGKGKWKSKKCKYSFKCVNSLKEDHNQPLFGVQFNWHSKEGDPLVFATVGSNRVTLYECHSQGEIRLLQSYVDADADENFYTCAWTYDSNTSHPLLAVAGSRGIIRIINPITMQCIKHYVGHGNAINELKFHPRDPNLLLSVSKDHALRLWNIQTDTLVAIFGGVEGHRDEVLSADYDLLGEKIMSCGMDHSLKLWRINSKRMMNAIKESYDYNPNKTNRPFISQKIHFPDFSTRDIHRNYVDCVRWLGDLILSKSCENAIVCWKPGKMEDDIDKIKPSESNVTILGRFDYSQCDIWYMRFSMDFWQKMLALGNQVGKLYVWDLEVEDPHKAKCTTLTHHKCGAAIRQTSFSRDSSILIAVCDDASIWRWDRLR
- Sequence (Q15022 whole entry partner): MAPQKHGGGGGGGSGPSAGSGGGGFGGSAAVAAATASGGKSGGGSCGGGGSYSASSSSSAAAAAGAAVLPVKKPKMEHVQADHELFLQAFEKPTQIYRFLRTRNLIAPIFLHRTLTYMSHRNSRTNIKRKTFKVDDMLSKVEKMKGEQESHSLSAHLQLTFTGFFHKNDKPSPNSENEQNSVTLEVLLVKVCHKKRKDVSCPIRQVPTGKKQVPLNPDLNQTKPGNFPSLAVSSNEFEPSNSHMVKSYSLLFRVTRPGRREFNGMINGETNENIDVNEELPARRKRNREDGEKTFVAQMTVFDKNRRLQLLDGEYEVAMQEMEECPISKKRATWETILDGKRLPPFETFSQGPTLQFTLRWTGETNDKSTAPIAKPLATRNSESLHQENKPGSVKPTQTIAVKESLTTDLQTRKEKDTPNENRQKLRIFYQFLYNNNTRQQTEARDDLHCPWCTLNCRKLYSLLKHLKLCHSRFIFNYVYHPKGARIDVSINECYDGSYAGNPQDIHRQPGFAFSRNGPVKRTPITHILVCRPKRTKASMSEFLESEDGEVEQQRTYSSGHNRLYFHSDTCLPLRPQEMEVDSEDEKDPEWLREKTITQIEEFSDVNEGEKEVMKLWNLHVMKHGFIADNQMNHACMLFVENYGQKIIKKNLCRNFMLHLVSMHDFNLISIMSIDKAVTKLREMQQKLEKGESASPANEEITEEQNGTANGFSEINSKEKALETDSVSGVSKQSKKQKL
- Experiment notes: EZH2 assay: rPRC2 with biotinylated oligonucleosome substrates and 3H SAM, FlashPlate scintillation counting, IC50
- Format: biochemical
- Condition label: rPRC2, biotinylated oligonucleosome substrates, 3H SAM; read-out: EZH2 IC50
pIC50: −log10 of the molar value.
Listed below: pIC50 values for each entry.

{"columns": ["Compound", "Measure", "Reading"],
 "data": [
  ["CCc1ccccc1Oc1ccc(C(=O)NC2CC(C)(C)NC(C)(C)C2)cc1", "pIC50", "4.10 to 4.70"]
]}

Lookup: What value of pIC50 has been recorded for this entry: "Cc1cc(C(=O)NC2CC(C)(C)NC(C)(C)C2)ccc1Oc1cccc(C(C)C)c1C#N"
Found: > 5.30
